test system: wt HBV genotype D; assay: Inhibition of intracellular HBV DNA synthesis in vitro (transfected C3A cells, Southern blot of replicative intermediates); format: cell-based; conditions: Hepatitis B virus, 144 h, harvested day 6, Southern blot, read-out: concentration for 50% inhibition of intracellular HBV DNA
measurement_name: IC50

Dear colleague, please send me the reported IC50 for Nc1ncnc2c1ncn2CCOCP(=O)(O)O when you can.
~0.5 µM
